target: B1R receptor of the rat (rB1R) (Rattus norvegicus, UniProt P97583); construct: expressed in transfected cells; host or cells: CHO K1 cells; test: Functional investigation on the bradykinin receptor 1 (B1R), FLIPR Ca2+ assay, rB1R cells; format: cell-based
Sequence (P97583 whole entry): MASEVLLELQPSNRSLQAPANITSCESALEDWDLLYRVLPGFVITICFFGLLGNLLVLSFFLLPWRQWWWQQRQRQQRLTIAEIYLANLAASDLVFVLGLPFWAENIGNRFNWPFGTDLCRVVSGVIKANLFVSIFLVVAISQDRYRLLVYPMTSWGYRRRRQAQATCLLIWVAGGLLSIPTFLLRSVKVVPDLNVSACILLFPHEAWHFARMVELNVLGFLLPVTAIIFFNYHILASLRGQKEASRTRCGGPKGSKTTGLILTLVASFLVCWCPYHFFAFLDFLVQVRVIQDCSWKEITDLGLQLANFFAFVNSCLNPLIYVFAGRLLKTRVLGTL
MEASURED PROPERTY: inhibition at 10 µM (%)

INSERT INTO results (compound, measurement) VALUES
  ('COc1cc(C)c(S(=O)(=O)N(C)Cc2nc3c(C(=O)N4CCC5(CC4)CCN(c4ccncc4)CC5)cccc3n2C)c(C)c1', 30),
  ('COc1cc(C)c(S(=O)(=O)N(C)Cc2nc3c(C(=O)N4CCC5(CC4)CCN(c4ccncc4)C5)cccc3s2)c(C)c1', 100);

P: COc1cc(C)c(S(=O)(=O)N2CCCCC2c2nc3cccc(C(=O)N4CCC5(CC4)CCN(c4ccncc4)CC5)c3[nH]2)c(C)c1 (stereo not shown)
Q: COc1cc(C)c(S(=O)(=O)N(C)Cc2nc3cccc(C(=O)N4CCC5(CC4)CC(c4ccncc4)=NO5)c3[nH]2)c(C)c1
Prompt: // pick min by inhibition at 10 µM: P , Q Reply with the label of the item you choose.
Response: P

* * *

target: human B1R receptor (hB1R) (Homo sapiens); construct: expressed in transfected cells; host or cells: CHO K1 cells; experiment: Functional investigation on the bradykinin receptor 1 (B1R), FLIPR Ca2+ assay, hB1R cells; assay type: cell-based
Sequence (P46663 whole entry): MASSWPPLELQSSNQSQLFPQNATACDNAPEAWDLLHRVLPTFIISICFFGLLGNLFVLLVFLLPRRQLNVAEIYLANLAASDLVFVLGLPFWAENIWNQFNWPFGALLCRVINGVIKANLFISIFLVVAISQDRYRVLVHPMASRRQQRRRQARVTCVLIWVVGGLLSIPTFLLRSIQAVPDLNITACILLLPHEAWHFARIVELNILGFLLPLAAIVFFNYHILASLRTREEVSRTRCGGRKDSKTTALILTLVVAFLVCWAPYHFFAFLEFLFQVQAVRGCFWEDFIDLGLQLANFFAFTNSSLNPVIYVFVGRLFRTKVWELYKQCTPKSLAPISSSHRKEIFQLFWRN
MEASURED PROPERTY: inhibition at 10 µM (%)

Completed entries (count: 3):
INSERT INTO measurements (compound, unit_info, measurement) VALUES
  ('COc1cc(C)c(S(=O)(=O)N(C)C(C)c2nc3cccc(C(=O)N4CCC5(CC4)CCN(S(=O)(=O)c4ccc(Cl)s4)CC5)c3[nH]2)c(C)c1 (centres unmarked)', '%', 15),
  ('CN(Cc1nc2ccc(C(=O)N3CCC4(CC3)CCN(c3ccncc3)CC4)cc2[nH]1)S(=O)(=O)c1cccc2ccccc12', '%', 95),
  ('COc1cc(C)c(S(=O)(=O)N(C)C(C)c2nc3cccc(C(=O)N4CCC5(CCN(Cc6ccncc6)CC5)CC4)c3[nH]2)c(C)c1 (centres unmarked)', '%', 90);

P: COc1cc(C)c(S(=O)(=O)N(C)C(C)c2nc3cccc(C(=O)N4CCC5(CCN(C(=O)c6cnccn6)CC5)CC4)c3[nH]2)c(C)c1 (centres unmarked)
Q: Cc1cccc(Cl)c1S(=O)(=O)N(C)Cc1nc2cccc(C(=O)N3CCC4(CC3)CCN(c3ccncc3)CC4)c2[nH]1
Prompt: // pick min by inhibition at 10 µM: P , Q Reply with the label of the item you choose.
Response: P
(P: 58%, Q: 98%)

a: COc1cc(C)c(S(=O)(=O)N(C)C(C)c2nc3cccc(C(=O)N4CCC5(CCN(Cc6ccc(F)cc6Cl)CC5)CC4)c3[nH]2)c(C)c1 (centres unmarked)
b: COc1cc(C)c(S(=O)(=O)N(C)C(C)c2nc3cccc(C(=O)N4CCC5(CCN(C(=O)c6ccc(F)cc6F)CC5)CC4)c3[nH]2)c(C)c1 (centres unmarked)
Prompt: // pick min by inhibition at 10 µM: a , b Reply with the label of the item you choose.
Response: a
(a: 49%, b: 85%)

I: COc1cc(C)c(S(=O)(=O)N(C)C(C)c2nc3cccc(C(=O)N4CCC5(CCN(C(=O)c6cccnc6SC)CC5)CC4)c3[nH]2)c(C)c1 (centres unmarked)
II: O=C1c2c(Cl)cccc2CN1Cc1nc2cccc(C(=O)N3CCC4(CC3)CCN(c3ccncc3)CC4)c2[nH]1
Prompt: # argmax over inhibition at 10 µM for candidates I and II Reply with the label of the item you choose.
Response: II
(II: 100%, I: 61%)

P: COc1cc(C)c(S(=O)(=O)N(C)c2nc3ccc(C(=O)N4CCC5(CC4)CCN(c4ccncc4)C5)cc3n2C)c(C)c1
Q: COc1cc(C)c(S(=O)(=O)N(C)C(C)c2nc3cccc(C(=O)N4CCC5(CCN(Cc6csnn6)CC5)CC4)c3[nH]2)c(C)c1 (centres unmarked)
R: COc1cc(C)c(S(=O)(=O)N(C)C(C)c2nc3cccc(C(=O)N4CCC5(CCN(Cc6c[nH]cn6)CC5)CC4)c3[nH]2)c(C)c1 (centres unmarked)
S: CN(Cc1nc2cccc(C(=O)N3CCC4(CC3)C(=O)NCC4c3ccncc3)c2[nH]1)C(=O)c1ccccc1Cl (centres unmarked)
Prompt: Number of compounds to sort: 4. Sort criterion: inhibition at 10 µM, ascending. Please reply with the labels ordered as requested. Many thanks.
Response: S, P, R, Q
(S: 10%, P: 39%, R: 58%, Q: 85%)
